List of pIC50 tested on human GST-CLK1 (Homo sapiens).
Sequence (P49759 129-484 limits assumed): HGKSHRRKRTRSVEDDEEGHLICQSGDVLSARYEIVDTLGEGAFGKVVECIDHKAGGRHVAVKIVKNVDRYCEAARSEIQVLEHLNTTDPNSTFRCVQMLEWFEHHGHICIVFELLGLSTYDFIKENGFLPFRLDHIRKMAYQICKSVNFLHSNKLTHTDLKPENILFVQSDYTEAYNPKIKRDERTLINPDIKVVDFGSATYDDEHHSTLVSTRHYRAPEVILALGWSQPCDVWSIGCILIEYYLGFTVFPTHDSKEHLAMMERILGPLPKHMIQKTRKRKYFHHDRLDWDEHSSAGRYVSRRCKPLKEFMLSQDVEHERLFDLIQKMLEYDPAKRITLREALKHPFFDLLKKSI
pIC50: −log10 of the molar value.

Incoming: Bench note: what pIC50 did CCNc1nc(Nc2ccc(C(=O)N3CCC(N4CCOCC4)CC3)c3c2OCC3)nc2[nH]cc(C#N)c12 show?
Outgoing: > 7.00

Incoming: Request: CC[C@@H](C)Nc1nc(Nc2ccc(S(C)(=O)=O)cc2OC)nc2[nH]ccc12
Outgoing: 6.00 to 6.52

Incoming: Request: CNc1nc(Nc2ccc(C(=O)N3CCC(N4CCOCC4)CC3)c3c2OCC3)nc2[nH]cc(C(F)(F)F)c12
Outgoing: > 7.00

Incoming: Request: COc1cc(S(=O)(=O)N2CCC(N3CCOCC3)CC2)ccc1Nc1nc(NCC2CCC2)c2cc[nH]c2n1 [Example 38, 2,2,2-trifluoroacetate]
Outgoing: 6.00 to 6.52

Incoming: Request: CC[C@H](C)Nc1nc(Nc2ccc(C(=O)N3CCC(N4CCOCC4)CC3)c3c2OCC3)nc2[nH]cc(C#N)c12
Outgoing: > 7.00

Incoming: Request: CCNc1nc(Nc2ccc(S(C)(=O)=O)cc2OC)nc2[nH]cc(C(F)(F)F)c12
Outgoing: 6.00 to 6.52

Incoming: Request: CC(C)CNc1nc(Nc2ccc(C(=O)N3CCC(N4CCOCC4)CC3)c3c2OCCO3)nc2[nH]cc(C(F)(F)F)c12
Outgoing: > 7.00

Incoming: Request: O=C(c1ccc(Nc2nc(NC3CCC3)c3c(C(F)(F)F)c[nH]c3n2)c2c1OCCO2)N1CCN(C2COC2)CC1
Outgoing: > 7.00

Incoming: Request: COc1cc(S(C)(=O)=O)ccc1Nc1nc(NC2CCOCC2)c2cc[nH]c2n1 [Example 30, 2,2,2-trifluoroacetate]
Outgoing: 6.00 to 6.52

Incoming: Request: COc1cc(S(=O)(=O)N2CCC(N3CCOCC3)CC2)ccc1Nc1nc(NC2CCC2)c2cc[nH]c2n1 [Example 23, 2,2,2-trifluoroacetate]
Outgoing: 6.00 to 6.52

Incoming: Request: N#Cc1c[nH]c2nc(Nc3ccc(C(=O)N4CCOCC4)c4c3OCCO4)nc(NC3CCCCC3)c12
Outgoing: 6.00 to 6.52

Incoming: Request: CS(=O)(=O)CCNc1nc(Nc2ccc(C(=O)N3CCC(N4CCOCC4)CC3)c3c2OCC3)nc2[nH]cc(C#N)c12
Outgoing: > 7.00

Incoming: Request: COc1cc(P2(=O)CCN(C3COC3)CC2)ccc1Nc1nc(NC2CCOCC2)c2c(C#N)c[nH]c2n1
Outgoing: 6.00 to 6.52

Incoming: Request: COc1cc(P2(=O)CCN(C3CC3)CC2)ccc1Nc1nc(NCC2CC2)c2c(C(F)(F)F)c[nH]c2n1
Outgoing: 6.00 to 6.52

Incoming: Request: CNc1nc(Nc2ccc(S(=O)(=O)N3CCC(N4CCOCC4)CC3)cc2OC)nc2[nH]cc(C(F)(F)F)c12 [Example 157, 2,2,2-trifluoroacetate]
Outgoing: > 7.00

Incoming: Request: CCNc1nc(Nc2ccc(C(=O)N3CCC(N4CCOCC4)CC3)c3c2OCCO3)nc2[nH]cc(C#N)c12
Outgoing: > 7.00

Incoming: Request: O=C(c1ccc(Nc2nc(C3CC3)c3c(C(F)(F)F)c[nH]c3n2)c2c1CCO2)N1CC[C@@H](N2CCOCC2)C1
Outgoing: > 7.00

Incoming: Request: CCCCNc1nc(Nc2ccc(C(=O)N3CCOCC3)c3c2OCC3)nc2[nH]cc(C(F)(F)F)c12
Outgoing: 6.00 to 6.52

Incoming: Request: COc1cc(S(C)(=O)=O)ccc1Nc1nc(NCC(C)C)c2cc[nH]c2n1 [Example 12, 2,2,2-trifluoroacetate]
Outgoing: 6.00 to 6.52

Incoming: Request: O=C(c1ccc(Nc2nc(NC3CC3)c3c(C(F)(F)F)c[nH]c3n2)c2c1OCCO2)N1CCOCC1
Outgoing: 6.00 to 6.52

Incoming: Request: O=C(c1ccc(Nc2nc(NC3CC3)c3c(C(F)(F)F)c[nH]c3n2)c2c1OCCO2)N1CCN(C2COC2)CC1
Outgoing: > 7.00

Incoming: Request: COCC(C)(C)Nc1nc(Nc2ccc(S(=O)(=O)N3CCOCC3)cc2OC)nc2[nH]ccc12
Outgoing: 6.00 to 6.52

Incoming: Request: N#Cc1c[nH]c2nc(Nc3ccc(C(=O)N4CCOCC4)c4c3OCCO4)nc(NCC3CC3)c12
Outgoing: 6.00 to 6.52

Incoming: Request: COc1cc(P(C)(C)=O)ccc1Nc1nc(NC2CCC2)c2c(C(F)(F)F)c[nH]c2n1
Outgoing: 6.00 to 6.52

Incoming: Request: N#Cc1c[nH]c2nc(Nc3ccc(C(=O)N4CCOCC4)c4c3OCO4)nc(NC3CCCC3)c12
Outgoing: > 7.00

Incoming: Request: COc1cc(S(C)(=O)=O)ccc1Nc1nc(NCC(C)C)c2c(C#N)c[nH]c2n1
Outgoing: 6.00 to 6.52

Incoming: Request: COc1cc(S(=O)(=O)N2CCC(N3CCOCC3)CC2)ccc1Nc1nc(NCC(C)C)c2cc[nH]c2n1
Outgoing: 6.00 to 6.52

Incoming: Request: COc1cc(P(C)(C)=O)ccc1Nc1nc(N[C@H]2CCOC2)c2c(C#N)c[nH]c2n1
Outgoing: 6.52 to 7.00

Incoming: Request: O=C(c1ccc(Nc2nc(NCC3CC3)c3c(C(F)(F)F)c[nH]c3n2)c2c1CCO2)N1CCOCC1
Outgoing: > 7.00

----------
biological target: PYK2 (Homo sapiens); construct: purchased DiscoverX Corp. (commissioned ScanMAX panel service); experiment: ScanMAX Kinase analysis panel, PYK2; type: binding; conditions: 1 μM in DMSO; <35% considered inhibitory; read-out: percent control (% control), PYK2
Sequence (Q14289 whole entry): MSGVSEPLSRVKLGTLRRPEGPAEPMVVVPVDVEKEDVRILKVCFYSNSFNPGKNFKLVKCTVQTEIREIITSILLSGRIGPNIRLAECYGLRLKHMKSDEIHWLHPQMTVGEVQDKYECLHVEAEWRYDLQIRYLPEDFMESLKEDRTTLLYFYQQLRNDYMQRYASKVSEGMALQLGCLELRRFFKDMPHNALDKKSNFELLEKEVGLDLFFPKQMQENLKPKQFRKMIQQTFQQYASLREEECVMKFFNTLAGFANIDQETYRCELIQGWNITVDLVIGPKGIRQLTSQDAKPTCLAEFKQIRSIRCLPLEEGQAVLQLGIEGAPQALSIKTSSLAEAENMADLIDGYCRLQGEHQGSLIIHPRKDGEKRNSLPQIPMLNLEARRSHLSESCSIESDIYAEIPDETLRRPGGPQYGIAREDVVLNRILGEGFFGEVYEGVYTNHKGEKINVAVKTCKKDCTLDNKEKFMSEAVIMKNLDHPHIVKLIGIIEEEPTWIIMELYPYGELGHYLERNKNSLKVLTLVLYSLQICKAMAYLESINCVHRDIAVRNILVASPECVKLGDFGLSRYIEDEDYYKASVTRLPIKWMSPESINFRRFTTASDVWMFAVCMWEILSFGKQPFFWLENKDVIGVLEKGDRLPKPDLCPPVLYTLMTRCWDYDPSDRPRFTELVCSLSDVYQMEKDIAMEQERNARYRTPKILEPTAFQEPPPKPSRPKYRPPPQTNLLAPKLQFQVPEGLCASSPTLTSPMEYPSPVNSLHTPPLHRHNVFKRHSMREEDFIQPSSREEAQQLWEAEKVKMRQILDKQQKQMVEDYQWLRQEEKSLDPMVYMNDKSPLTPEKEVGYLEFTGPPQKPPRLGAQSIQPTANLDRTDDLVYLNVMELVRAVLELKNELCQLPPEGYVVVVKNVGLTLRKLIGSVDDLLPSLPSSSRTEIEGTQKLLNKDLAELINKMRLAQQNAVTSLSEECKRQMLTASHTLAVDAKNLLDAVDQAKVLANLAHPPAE
Response field label: string, one of Fulfilled (remaining binding at 1 µM strictly below 6%) or Not fulfilled.

Incoming: Hello, is remaining binding at 1 µM of the following compound strictly smaller than 6%? CNc1nc(Nc2ccc(S(=O)(=O)N3CCC(N4CCOCC4)CC3)cc2OC)nc2[nH]cc(C(F)(F)F)c12 [Example 157, 2,2,2-trifluoroacetate]
Outgoing: Fulfilled

Incoming: Request: C=CCNc1nc(Nc2ccc(S(=O)(=O)N3CCC(N4CCOCC4)CC3)cc2OC)nc2[nH]cc(C#N)c12
Outgoing: Fulfilled

Incoming: Request: CCCNc1nc(Nc2ccc(S(=O)(=O)N3CCC(N4CCOCC4)CC3)cc2OC)nc2[nH]cc(C(F)(F)F)c12
Outgoing: Fulfilled

Incoming: Request: O=C(c1ccc(Nc2nc(C3CC3)c3c(C(F)(F)F)c[nH]c3n2)c2c1OCCO2)N1CCC(N2CCOCC2)CC1
Outgoing: Not fulfilled

Incoming: Request: CCNc1nc(Nc2ccc(S(=O)(=O)N3CCC(N4CCOCC4)CC3)cc2OC)nc2[nH]cc(C(F)(F)F)c12 [Example 158, 2,2,2-trifluoroacetate]
Outgoing: Fulfilled

Incoming: Request: CNc1nc(Nc2ccc(P3(=O)CCN(C4CC4)CC3)cc2OC)nc2[nH]cc(C(F)(F)F)c12
Outgoing: Not fulfilled

Incoming: Request: CNc1nc(Nc2ccc(C(=O)N3CCC(N4CCOCC4)CC3)c3c2OCCO3)nc2[nH]cc(C(F)(F)F)c12
Outgoing: Fulfilled

----------
List of IC50 tested on human GST-DYRK1A (Homo sapiens, UniProt Q13627).

Incoming: Bench note: what IC50 did COc1cc(S(=O)(=O)N2CCOCC2)ccc1Nc1nc(NCC2CCC2)c2c(C(F)(F)F)c[nH]c2n1 show?
Outgoing: 301 to 1000 nM

Incoming: Request: CC[C@H](C)Nc1nc(Nc2ccc(S(C)(=O)=O)cc2OC)nc2[nH]cc(C(F)(F)F)c12
Outgoing: 301 to 1000 nM

Incoming: Request: CCNc1nc(Nc2ccc(C(=O)N3CCOCC3)c3c2OCCO3)nc2[nH]ccc12 [Example 58, 2,2,2-trifluoroacetate]
Outgoing: 301 to 1000 nM

Incoming: Request: CCNc1nc(Nc2ccc(C(=O)N3CCN(C4COC4)CC3)c3c2OCCO3)nc2[nH]cc(C#N)c12
Outgoing: 101 to 300 nM

Incoming: Request: CNc1nc(Nc2ccc(S(C)(=O)=O)cc2OC)nc2[nH]cc(C#N)c12
Outgoing: 301 to 1000 nM

Incoming: Request: CC[C@H](C)Nc1nc(Nc2ccc(C(=O)N3CC(CO)(CO)C3)c3c2OCCO3)nc2[nH]cc(C#N)c12
Outgoing: 301 to 1000 nM

Incoming: Request: O=C(c1ccc(Nc2nc(N[C@@H]3CCOC3)c3cc[nH]c3n2)c2c1OCCO2)N1CCOCC1
Outgoing: 301 to 1000 nM

----------
system: MDA-MB-468 cell line; test: Inhibition of proliferation of MDA-MB-468 cancer cells (Cell Titer-Glo); format: cell-based; conditions: Homo sapiens, MDA-MB-468, 72 hours
Give measured GI50 for each item. Keep answers brief.

Incoming: Bench note: what GI50 did O=C(c1ccc(Nc2nc(C3CC3)c3c(C(F)(F)F)c[nH]c3n2)c2c1OCCO2)N1CCOCC1 [Example 227] show?
Outgoing: 301 to 1000 nM

Incoming: Request: O=C(c1ccc(Nc2nc(NC3CCC3)c3c(C(F)(F)F)c[nH]c3n2)c2c1OCCO2)N1CCN(C2COC2)CC1 [Example 407]
Outgoing: 301 to 1000 nM

Incoming: Request: COc1cc(S(=O)(=O)N2CCC(N3C[C@H]4C[C@@H]3CO4)CC2)ccc1Nc1nc(C2CC2)c2c(C(F)(F)F)c[nH]c2n1 [Example 473]
Outgoing: 301 to 1000 nM

Incoming: Request: COc1cc(S(=O)(=O)N2CCOCC2)ccc1Nc1nc(NC(C)C)c2c(C#N)c[nH]c2n1 [Example 250]
Outgoing: < 50 nM

Incoming: Request: COc1cc(S(=O)(=O)N2CCC(N3CCOCC3)CC2)ccc1Nc1nc(C2CC2)c2c(C(F)(F)F)c[nH]c2n1 [Example 226]
Outgoing: 301 to 1000 nM

Incoming: Request: C=CCNc1nc(Nc2ccc(S(=O)(=O)N3CCOCC3)cc2OC)nc2[nH]cc(C#N)c12 [Example 362]
Outgoing: < 50 nM

Incoming: Request: CNc1nc(Nc2ccc(S(=O)(=O)N3CCC(N4CCOCC4)CC3)c3c2OCCO3)nc2[nH]cc(C(F)(F)F)c12 [Example 219]
Outgoing: 301 to 1000 nM

Incoming: Request: CNc1nc(Nc2ccc(C(=O)N3CCN(C4COC4)CC3)c3c2OCCO3)nc2[nH]cc(C(F)(F)F)c12 [Example 397]
Outgoing: 301 to 1000 nM

Incoming: Request: COCCNc1nc(Nc2ccc(C(=O)N3CCN(C4COC4)CC3)c3c2OCCO3)nc2[nH]cc(C(F)(F)F)c12 [Example 403]
Outgoing: 301 to 1000 nM

Incoming: Request: N#Cc1c[nH]c2nc(Nc3ccc(C(=O)N4CCN(C5COC5)CC4)c4c3OCCO4)nc(NC3CCCC3)c12 [Example 147]
Outgoing: 51 to 100 nM

Incoming: Request: COc1cc(S(=O)(=O)N2CCC(N3CCOCC3)CC2)ccc1Nc1nc(NC2CCCCC2)c2c(C#N)c[nH]c2n1 [Example 91]
Outgoing: 51 to 100 nM

Incoming: Request: O=C(c1ccc(Nc2nc(NC3CC3)c3c(C(F)(F)F)c[nH]c3n2)c2c1OCCO2)N1CCN(C2COC2)CC1 [Example 405]
Outgoing: 301 to 1000 nM

Incoming: Request: CCNc1nc(Nc2ccc(C(=O)N3CCC(N4CCOCC4)CC3)c3c2OCC3)nc2[nH]cc(C(F)(F)F)c12 [Example 438]
Outgoing: 301 to 1000 nM

Incoming: Request: COc1cc(S(=O)(=O)N2CCOCC2)ccc1Nc1nc(NC2CC2)c2c(C(F)(F)F)c[nH]c2n1 [Example 374]
Outgoing: 301 to 1000 nM

Incoming: Request: COc1cc(S(=O)(=O)N2CCC(N3CCOCC3)CC2)ccc1Nc1nc(NC2CC2)c2c(C(F)(F)F)c[nH]c2n1 [Example 375]
Outgoing: 301 to 1000 nM

Incoming: Request: N#Cc1c[nH]c2nc(Nc3ccc(C(=O)N4CCN(C5COC5)CC4)c4c3OCCO4)nc(NC3CCCCC3)c12 [Example 144]
Outgoing: 51 to 100 nM

Incoming: Request: COc1cc(S(=O)(=O)N2CCC(N3CCOCC3)CC2)ccc1Nc1nc(NC(C)C)c2c(C#N)c[nH]c2n1 [Example 85]
Outgoing: < 50 nM

Incoming: Request: COCCNc1nc(Nc2ccc(C(=O)N3CCC(N4CCOCC4)CC3)c3c2OCC3)nc2[nH]cc(C#N)c12 [Example 359]
Outgoing: 301 to 1000 nM

Incoming: Request: COc1cc(P2(=O)CCN(C3CC3)CC2)ccc1Nc1nc(C2CC2)c2c(C(F)(F)F)c[nH]c2n1 [Example 394]
Outgoing: 301 to 1000 nM

Incoming: Request: CCNc1nc(Nc2ccc(S(=O)(=O)N3CCOCC3)c3c2OCCO3)nc2[nH]cc(C(F)(F)F)c12 [Example 432]
Outgoing: 301 to 1000 nM

Incoming: Request: COc1cc(P2(=O)CCN(C3CCOCC3)CC2)ccc1Nc1nc(NC2CCCC2)c2cc[nH]c2n1 [Example 243]
Outgoing: 301 to 1000 nM

Incoming: Request: CCN1CCP(=O)(c2ccc(Nc3nc(C4CC4)c4c(C#N)c[nH]c4n3)c(OC)c2)CC1 [Example 261]
Outgoing: 301 to 1000 nM

Incoming: Request: COc1cc(S(=O)(=O)N2CCC(N3CCOCC3)CC2)ccc1Nc1nc(NC2CCCC2)c2c(C#N)c[nH]c2n1 [Example 90]
Outgoing: 51 to 100 nM

Incoming: Request: CN1CCC(NC(=O)c2ccc(Nc3nc(NC4CCCC4)c4c(C#N)c[nH]c4n3)c3c2OCCO3)CC1 [Example 146]
Outgoing: 101 to 300 nM

Incoming: Request: N#Cc1c[nH]c2nc(Nc3ccc(C(=O)N4CCC(N5CCOCC5)CC4)c4c3OCC4)nc(NC3CCCC3)c12 [Example 320]
Outgoing: 301 to 1000 nM

Incoming: Request: CCNc1nc(Nc2ccc(C(=O)N3CCC(N4C[C@@H]5C[C@H]4CO5)CC3)c3c2OCC3)nc2[nH]cc(C(F)(F)F)c12 [Example 468]
Outgoing: 301 to 1000 nM

Incoming: Request: CCNc1nc(Nc2ccc(C(=O)N3CCN(C4COC4)CC3)c3c2OCCO3)nc2[nH]cc(C(F)(F)F)c12 [Example 400]
Outgoing: 301 to 1000 nM

Incoming: Request: COc1cc(S(=O)(=O)N2CCC(N3CCOCC3)CC2)ccc1Nc1nc(NC2CC2)c2c(C#N)c[nH]c2n1 [Example 88]
Outgoing: 51 to 100 nM
